What viability at 28.5 h, 10 µM was measured for each of the following?
Assay: in vitro
Conditions: human, hela cells, % viability
Numbers only, in %.

- CC[C@H](Cn1ncc2ccccc2c1=O)NC(=O)c1ccc2c(c1)Sc1ccccc1O2: 81.3
- COc1ccc(-c2cnc(NCCOc3ccccc3)c(C(=O)NCC3COc4ccccc4O3)c2)cc1 (stereo not drawn): 97.2
- O=c1[nH]cc(S(=O)(=O)N2CCN(Cc3ccccc3Cl)CC2)c(=O)[nH]1: 97.1
- CC(C)(C)OC(=O)NCCNC(=O)Nc1ccccc1C(F)(F)F: 98.6
- CCn1nc(C)c(-c2cncn2CCn2nc(C)c(Cl)c2C)c1C: 90.4

Kindly give each listed record's viability at 28.5 h, 10 µM.
1. CC(=O)N1CCC(C(=O)N2CCC(C(=O)NC(c3ccccn3)c3cccs3)CC2)CC1 (stereo not drawn)
2. O=C(O)c1cccc(NS(=O)(=O)c2ccc(Br)cc2F)c1
3. CNC1=NC2CCCCC2O1 (stereo not drawn) [CBK023075F]
4. Cc1ccc(Cc2c(C)[nH]c3[nH]n(-c4ccccc4)c(=O)c3c2=O)cc1

[reply]
1: 95; 2: 95.6; 3: 117; 4: 83.7

Origin of values: paper PMC12040169
